Tested on: LOX IMVI
assay-comment: NCI tumour cell line growth inhibition, 48 h
Calls of active or inactive are those of the source. Cut-off read from the data, not from the text of the source: active = GI50 up to about 1.1 µM and inactive = higher.
Please respond with reported GI50 for every item in the list.

Past entries and their recorded results:
molecule: CC(=O)O[C@H]1CCN2C(=O)C=CC(OCc3ccccc3)C12 (stereo partly specified)
GI50: > 100 µM (inactive)
--
molecule: Cn1c(=O)c2c(nc3n(C)c(=O)c4ccccc4n23)n(C)c1=O
GI50: 38.7 µM (inactive)
--
molecule: CC(=O)NC1C(O)C(O)C(CO)OC1n1ncc(=O)[nH]c1=O (stereo unspecified)
GI50: > 100 µM (inactive)
--
molecule: c1cc(-c2csc(-c3ccsc3)c2)cs1
GI50: > 100 µM (inactive)
--
molecule: C(#CC1(Nc2ccccc2)CCN(Cc2ccccc2)CC1)C1(Nc2ccccc2)CCN(Cc2ccccc2)CC1
GI50: 5.14 µM (inactive)
--
molecule: O=C1C(Sc2ccc3ccccc3c2)=C(Sc2ccc3ccccc3c2)C(=O)c2ccccc21
GI50: 11.4 µM (inactive)
--
molecule: CCOC(=O)c1c(N2CCCC2)ncn(C)c1=S
GI50: > 100 µM (inactive)
--
molecule: COc1cc(/C=C/C(=O)CC(=O)/C=C/c2ccc(OC(=O)CCCCC3CCSS3)c(OC)c2)ccc1OC(=O)CCCCC1CCSS1 (stereo unspecified)
GI50: > 100 µM (inactive)

List the reported GI50 of each molecule below.
1. CCOC(=O)CNc1nnnn1C1OC(CO)C(O)C1O (stereo unspecified)
2. C1CNCCN2CCCNCCN(C1)CC2
3. Cc1cc(Cc2cc(C)c(N)cc2N)c(N)cc1N

1. > 100 µM (inactive)
2. > 100 µM (inactive)
3. 81.5 µM (inactive)

###

Test system: KM12
assay-comment: NCI tumour cell line growth inhibition, 48 h
Active and inactive are the calls of the source. Rule as the data show it: active = GI50 up to about 1.1 µM and inactive = higher.
Your answer must be one of the following: true for active, false for inactive

Worked set:
compound: Nc1c2ccccc2nc2ccc3c(=O)cc(-c4ccccc4)oc3c12
tested-target: KM12
qualitative-label: true

compound: CCOC(=O)CC1NC(=O)CS1 (stereo unspecified)
tested-target: KM12
qualitative-label: false

compound: CC(C)c1cccc(C(=O)NCCN(C)C)c1[N+](=O)[O-]
tested-target: KM12
qualitative-label: false

compound: Cc1cc(C)c(S(=O)(=O)N(CCCN)OCCCON(CCCN)S(=O)(=O)c2c(C)cc(C)cc2C)c(C)c1
tested-target: KM12
qualitative-label: false

compound: CCCCCCCCSC(SCCCCCCCC)=C1C(=O)N(c2ccccc2)N=C1C
tested-target: KM12
qualitative-label: false

compound: Cc1cccc2sc(-c3ccc(O)cc3)nc12
tested-target: KM12
qualitative-label: false

Could you kindly confirm the outcome this assay logged for COC(=O)C(C(=O)C(=O)Nc1c(Cl)cc([N+](=O)[O-])cc1Cl)c1csc(-n2nc(C3=CCCCC3)cc2-c2ccccc2)n1 (stereo unspecified) ?
false

Field: outcome | Entry: CCC1=C(CC2NCCc3cc(OC)c(OC)cc32)CC2c3ccccc3CCN2C1 (stereo unspecified)
false

###

System: NCI-H522
assay-comment: NCI tumour cell line growth inhibition, 48 h
The source made the active and inactive calls. No stated cut-off is given here; in the data, active = GI50 up to about 1.1 µM and inactive = higher.
Please reply with one of these outcomes: 1 (active), 0 (inactive)

compound: COC(=O)/C=C1/OC(c2ccc(OC)cc2)=C(Cl)C1=O
qualitative-label: 0

compound: CC(C)=CCC/C(C)=C/CC/C(C)=C/CC/C(C)=C/C=C/C=C(\C)CC/C=C(\C)CC/C=C(\C)CCC=C(C)C
qualitative-label: 0

compound: C1CN2CCNCCN(CCN1)CC2
qualitative-label: 0

compound: COc1cc2c(c(OC)c1O)-c1ccc(OC)c(=O)cc1[C@@H](NC(=O)C(F)(F)F)CC2
qualitative-label: 1

compound: N[C@H](C(=O)O)[C@H](Cl)CC(=O)O
qualitative-label: 0

compound: CO[C@](C(=O)OC[C@H]1[C@@H](COC(C)=O)[C@@H]2O[C@H]1c1cc3c(cc12)OCO3)(c1ccccc1)C(F)(F)F
qualitative-label: 0

compound: O=c1oc2cc(/N=C/c3ccccc3Cl)ccc2c2ccccc12
qualitative-label: 0

compound: COC(=O)/C(=C1\OC(=O)C(c2ccc(Cl)cc2)=C1O)c1ccc(Cl)cc1
qualitative-label: 0

Called result for `CC(=O)Oc1c(OC(C)C)c(C)c(O[Si](C(C)C)(C(C)C)C(C)C)c2[nH]c3ccccc3c12`
0

Dear colleague, could you share the recorded outcome for COC1CC(OC2C(C)OC(OC3C(C)OC(OC4C(C)OC(O[C@H]5CC[C@@]6(C)C(=CC[C@]7(O)[C@@H]6C[C@@H](O)[C@@]6(C)[C@]7(O)CC[C@@]6(O)C(C)=O)C5)CC4OC)CC3OC)CC2OC)OC(C)C1O (stereo partly drawn) when you have a moment?
0

What call does the record list for `CC(C)[Si](OC1=C(C(=O)N(C)c2ccccc2Cl)CCC1)(C(C)C)C(C)C` ?
0

Please let me know the test result on file for `O=C(Nc1cccc(NC(=O)c2cc(=O)c3ccccc3o2)n1)c1cc(=O)c2ccccc2o1` .
0

Query: recorded result category for `COc1cc2c(cc1OC)-c1c3cc(O)ccc3nn[n+]1CC2` in this test
0

// outcome(item) with item = COC1=CC(=O)[C@]2(C)[C@H](C1=O)C(C)[C@H]2c1ccccc1 (stereo partly drawn)
0

Short answer needed: outcome of this test for NC(=O)CNC(=O)[C@@H]1CC(OCCC(=O)O)CN1C(=O)C1CCCN1C(=O)OCc1ccccc1 (stereo partly drawn) ?
0

What did this assay record as the result for COc1cc(S(=O)(=O)Nc2ccc(-c3csc(N4C(=O)C(Cl)C4c4ccccc4)n3)cc2)ccc1Cl (stereo not drawn) ?
0

Recorded test call requested for COC(=O)C(C(=O)C(=O)Nc1c(Cl)cc([N+](=O)[O-])cc1Cl)c1csc(-n2nc(C3=CCCCC3)cc2-c2ccccc2)n1 (stereo not drawn)
0

Tell me the recorded outcome of this test for `COc1ccc2c(=O)c(O)c(-c3ccc(OC)c(OC)c3)oc2c1` .
0
